- System: HOP-62 NSCLC
- assay-remarks: NCI-60 one-dose screen, 48 h
- run-parameters: 10 µM unless noted
About 83,000 compounds went through this panel and 20% of them were active in at least one assay; those are over-represented in the sample as a whole. Activity calls are given as the source filed them. The calls were made as follows: active = growth percent below 10; inactive = the rest.
Write down one outcome, taken from 1 for active, 0 for inactive

Here's what some known entries look like.
CN(C)c1ccc(-c2ccc(-c3ccc(C(=N)N)cc3)s2)cc1 : 1
O=S(=O)(NCCNc1nccc(-c2c(-c3cccc(F)c3)nc3occn23)n1)c1ccc(C(F)(F)F)cc1 : 0
Cc1cccc(C[C@H](NC(=O)Nc2ccc(C)cc2F)C(=O)N[C@@H]2C(=O)N3C[C@H](O)C[C@H]3C(=O)N3CCN(C)C[C@H]3C(=O)N[C@@H](C)C(=O)N3C[C@H](C)C[C@H]3C(=O)O[C@H]2C)c1 : 0
O=C1COCCN1c1ccc(NCc2cn(Cc3ccc(F)cc3)c3ccccc23)cc1 : 0
CC(C)c1ccc(/C=N/N=C(N)N)cc1 : 0
CCN(CC)CCSC(=O)C(O)(c1ccccc1)C1CCCC1 (configuration not stated) : 0
CCN(CC)c1ccc2cc(C(Nc3ccc(Br)c(C(F)(F)F)c3)c3nnnn3C(C)(C)C)c(=O)oc2c1 (configuration not stated) : 0
COc1ccc2c(c1)C(C)Cc1c(ncnc1-n1cnc3ccccc31)N2C (configuration not stated) : 0

// outcome(item) with item = C=C(CN=[N+]=[N-])[C@@H]1CC[C@]2(C)[C@H](CC[C@@H]3[C@H]4[C@H]5OC(=O)[C@@]4(CCC5(C)C)CC[C@]32C)[C@@]1(C)CCC#N
0

# lookup: test call for C=C(C)[C@@H]1CC[C@]2(C)[C@H](CC=C3[C@@H]4[C@@H](C)[C@H](C)CC[C@]4(C(N)=O)CC[C@]32C)[C@@]1(C)CCC#N
1

Cited source for all entries: PubChem BioAssay (NCI)
